molecular target: corticotropin releasing factor 1 receptor; assay: cell-based or functional assay
Ends that are not written are not given here.
Mark each entry MET if its CRF1R Emax % sits below 20%, and NOT MET for all others.

The following binders have reported results that may help.
binder: ZGPPISIDLPFQLLRKVIEIEKQEKEKQQAANNAQLLAHI (C-terminal amide) [SEQ ID NO 273]
cat: NOT MET

binder: ZGPPISIDLPFQLLRKMIEIEKQEKEKQQAANNRLLLATI (C-terminal amide) [SEQ ID NO 250]
cat: NOT MET

binder: ZGPPISIDLPFQLLRKVIEIEKQEKEKQQAANNAKLLAKI (C-terminal amide) [SEQ ID NO 274]
cat: NOT MET

binder: DNPSLSIDLPQYLLRTLLELARTQSQRERAEQNAIIFASV-NH2 [SEQ ID NO 339]
cat: MET

binder: ZGPPISIDLPFQLLRKAIEIEKQEKEKQQAANNALLLDTI (C-terminal amide) [SEQ ID NO 365]
cat: NOT MET

binder: ZGPPISIDLPYQLLRKVIEIEKQEKEKQQAANNARLLARI (C-terminal amide) [SEQ ID NO 286]
cat: MET

binder: ZGPPISIDVPFQLLRKMIEIEKQEKEKQQAANNRLLLDTI (C-terminal amide) [SEQ ID NO 256]
cat: NOT MET

binder: ZGPPISIDLPFQLLRKVIEIEKQEKEKQQAANNAELLAEI (C-terminal amide) [SEQ ID NO 272]
cat: NOT MET

Item IVLSLDVPIGLLQILLEQARHAHAHAHAHAQAHILAHV-NH2 [SEQ ID NO 369] : CRF1R Emax % beneath 20%, strictly? MET

Criterion: CRF1R Emax % strictly below 20%. Is it met by ZGPPISIDLPLYLLRKMIEIEKQEKEKQQATTNARILARV (C-terminal amide) [SEQ ID NO 353] ? NOT MET

Identify whether the binder ZGPPISIDLPAALLRKMIEIEKQEKEKQQAANNRLLLDTI (not fully specified; C-terminal amide) [SEQ ID NO 303] records CRF1R Emax % below 20%. NOT MET

Does the reported CRF1R Emax % of PSLSIDLPLFLLRTLLELEKTQSQRERAEQNARIFARV-NH2 [SEQ ID NO 331] stay below 20%? NOT MET

Cited source: patent US20030148956A1
